Each recorded value in this set is attributed to patent US7163946B2.

- study_target: human androgen receptor (hAR) (Homo sapiens)
- Sequence (P10275 whole entry): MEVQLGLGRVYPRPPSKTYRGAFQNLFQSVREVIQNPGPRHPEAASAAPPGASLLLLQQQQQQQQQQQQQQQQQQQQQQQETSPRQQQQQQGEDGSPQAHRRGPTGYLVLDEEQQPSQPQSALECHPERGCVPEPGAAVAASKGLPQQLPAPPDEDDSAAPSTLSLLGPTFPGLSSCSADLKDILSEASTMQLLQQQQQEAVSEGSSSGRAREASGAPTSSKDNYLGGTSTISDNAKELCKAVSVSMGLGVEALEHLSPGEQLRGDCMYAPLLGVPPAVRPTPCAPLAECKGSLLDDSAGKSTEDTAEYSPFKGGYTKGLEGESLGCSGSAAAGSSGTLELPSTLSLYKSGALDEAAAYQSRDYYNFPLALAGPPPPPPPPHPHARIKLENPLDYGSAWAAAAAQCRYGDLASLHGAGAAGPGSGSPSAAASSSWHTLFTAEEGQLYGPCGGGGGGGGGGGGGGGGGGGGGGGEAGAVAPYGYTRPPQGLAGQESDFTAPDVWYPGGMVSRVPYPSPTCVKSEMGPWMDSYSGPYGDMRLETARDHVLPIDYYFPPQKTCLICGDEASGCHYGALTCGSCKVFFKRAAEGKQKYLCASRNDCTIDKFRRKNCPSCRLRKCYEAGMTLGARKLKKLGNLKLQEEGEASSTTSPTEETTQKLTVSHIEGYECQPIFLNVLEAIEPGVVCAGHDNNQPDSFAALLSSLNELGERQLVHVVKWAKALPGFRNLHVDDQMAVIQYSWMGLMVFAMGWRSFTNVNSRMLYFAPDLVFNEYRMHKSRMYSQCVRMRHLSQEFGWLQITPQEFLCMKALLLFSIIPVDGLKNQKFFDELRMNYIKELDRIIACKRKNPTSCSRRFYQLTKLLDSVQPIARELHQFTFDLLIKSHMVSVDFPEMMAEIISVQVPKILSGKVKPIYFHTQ
- method_description: hAR cotransfection assay (potency ratio to hPR)
- Assay type: cell-based
- measurement_parameters: receptor-selectivity potency ratio, cotransfection assays
Record form. Attribute: hAR EC50 or IC50/hPR EC50. Fill in for each entry.
Answer with a bare number; do not write a unit.

query: I have this compound here, CC1=CC(C)(C)Nc2ccc3c(c21)C(c1cc2ccccc2s1)Oc1c(F)cc(F)cc1-3 (racemic) , and I need its recorded hAR EC50 or IC50/hPR EC50.
result: 136

query: I have this compound here, CC1=CC(C)(C)Nc2ccc3c(c21)/C(=C/Br)Oc1c(F)cc(F)cc1-3 , and I need its recorded hAR EC50 or IC50/hPR EC50.
result: 6

query: I have this compound here, CC1=CC(C)(C)Nc2ccc3c(c21)/C(=C/c1ccncc1C)Oc1c(F)cc(F)cc1-3 , and I need its recorded hAR EC50 or IC50/hPR EC50.
result: 8

query: I have this compound here, CC1=CC(C)(C)Nc2ccc3c(c21)C(c1cccc(Cl)c1)Oc1c(F)cc(F)cc1-3 (racemic) , and I need its recorded hAR EC50 or IC50/hPR EC50.
result: 252

query: I have this compound here, CC1=CC(C)(C)Nc2ccc3c(c21)/C(=C/c1cccc(F)c1)Oc1c(F)cc(F)cc1-3 , and I need its recorded hAR EC50 or IC50/hPR EC50.
result: 2

query: I have this compound here, CC1=CC(C)(C)Nc2ccc3c(c21)C(c1cccc(C)c1)Oc1c(F)cc(F)cc1-3 (racemic) , and I need its recorded hAR EC50 or IC50/hPR EC50.
result: 8.5

query: I have this compound here, CC1=CC(C)(C)Nc2ccc3c(c21)C(c1ccccc1)Oc1c(F)cc(F)cc1-3 (racemic) , and I need its recorded hAR EC50 or IC50/hPR EC50.
result: 37

query: I have this compound here, CC1=CC(C)(C)Nc2ccc3c(c21)/C(=C/c1ccccc1)Oc1c(F)cc(F)cc1-3 , and I need its recorded hAR EC50 or IC50/hPR EC50.
result: 320
